Assay Info: NCI Yeast Anticancer Drug Screen. Data for the cln2 rad14 strain (AID 165);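 further: 0% = growth equal to vehicle treated cultures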
Recorded Conditions: S. cerevisiae cln2 rad14 strain, at 50.0 µM, hits give high values
About 79,000 compounds went through this panel and 15% of them were active in at least one assay; those are over-represented in the sample as a whole.
growth inhibition overview
The response must be a number in % with no trailing unit.

Answered examples (5):
O=C(Nc1nc2ccsc2s1)c1ccccc1 = -34.9
O/N=C1/CCCc2nonc21 = 4.35
Fc1ccc2nncc(/C=C/c3ccccn3)c2c1 = -16.9
CC(C)(C#N)CCCCC(N)=O = -6.1
CC(C)(C)OC(=O)NN(CC(=O)OCc1ccccc1)N=O = -42.5

input: For the compound shown here, c1ccc(C2OCC(OC3CCCCO3)CO2)cc1 (stereo not given) , give the reported growth inhibition.
output: -5.1

input: For the compound shown here, `CCOC(=O)CSc1ncnc2nc[nH]c12` , give the reported growth inhibition.
output: 6.25

====

growth inhibition overview
Assay Info: NCI Yeast Anticancer Drug Screen. Data for the sgs1 mgt1 strain (AID 161);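 further: 0% = growth of cultures given vehicle only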
Recorded Conditions: S. cerevisiae sgs1 mgt1 strain, at 50.0 µM, hits give high values
This is part of a sample that, as a whole, favours compounds with a hit. Of some 79,000 tested, about 15% had one in any assay.
The response must be a number in % with no trailing unit.

Answered examples (5):
COCCN(C(=O)c1ccccc1)C1CCC2(SCCS2)c2[nH]c3ccccc3c21 (stereo unspecified) = 3.75
CC1OC(c2cccc([N+](=O)[O-])c2)OCC1(C)C (stereo unspecified) = -4.9
CC1=CC(=O)C2=C(C)CCC3C(C)C(=O)OC3C12 (stereo unspecified) = -6.75
O/N=C1/C(=C/c2ccc(F)cc2)CCCC1C(NO)c1ccc(F)cc1 (stereo unspecified) = -8.05
O=c1nc(N2CCSCC2)ccn1C1OC(CO)C(O)C1O (stereo unspecified) = -8.45

Attention now turns to another entry.
input: For the compound shown here, `CC(C)NC1(C(N)=O)CCN(Cc2ccccc2)CC1` , give the reported growth inhibition.
output: 8.1

====

Assay Info: NCI Yeast Anticancer Drug Screen. Data for the sgs1 mgt1 strain (AID 161);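 further: 0% = growth of cultures given vehicle only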
Recorded Conditions: S. cerevisiae sgs1 mgt1 strain, at 50.0 µM, hits give high values
Protocol: Growth inhibition of yeast strains with defined genetic alterations is measured as a screen for potential anti-cancer activity. Selected strains with alterations in DNA damage repair or cell cycle control were exposed to compounds and growth inhibition was measured relative to vehicle treated controls. The strain used in this assay is sgs1 mgt1
About 79,000 compounds went through this panel and 15% of them were active in at least one assay; those are over-represented in the sample as a whole.
Observed Property: growth inhibition (%)
The response must be a number in % with no trailing unit.

Answered examples (5):
O=C(NN=C1c2ccccc2-c2ccccc21)C(F)(F)F = 4.65
CCC(C)OC(=O)/C(Br)=C1/OC(=O)c2ccccc2-c2ccccc21 (stereo unspecified) = -0.35
NCc1ccccc1 = -2.2
CCCCCCCC(=O)Oc1c(Cl)c(Cl)c(C#N)c(Cl)c1C#N = 11.5
C=C(C)CS(=O)(=O)Cc1ccccc1 = -1.8

input: For the compound shown here, `CC(=O)N1CCOCC1` , give the reported growth inhibition.
output: 11.1

input: For the compound shown here, CCCCCCCCCC(CCCCCCCC(=O)O)NC(C)=O (stereo unspecified) , give the reported growth inhibition.
output: 7.45

input: For the compound shown here, `C=C(C(=O)O)C(=O)O` , give the reported growth inhibition.
output: -2.2

input: For the compound shown here, `O=c1c2cc3c(=O)n(O)c(=O)c3cc2c(=O)n1O` , give the reported growth inhibition.
output: -9.45

input: For the compound shown here, `C1CCC2(CC1)CCCO2` , give the reported growth inhibition.
output: -0.9

input: For the compound shown here, CC(C)(C)c1ccc(O)c(C(O)c2ccncc2)c1 (stereo unspecified) , give the reported growth inhibition.
output: 9.15

input: For the compound shown here, `O=C(Cn1c2c(c3ccccc31)CCCC2)N1CCOCC1` , give the reported growth inhibition.
output: -14.1

input: For the compound shown here, `CCO/C([O-])=C(\C=N\S(=O)(=O)c1ccc(C)cc1)[n+]1ccc(C)cc1` , give the reported growth inhibition.
output: 12.2

input: For the compound shown here, `CCOCCOC(=O)OCCOCC` , give the reported growth inhibition.
output: 22.4

input: For the compound shown here, `CC(=O)Oc1ccccc1C=C(C(=O)O)C(=O)O` , give the reported growth inhibition.
output: -8.1

input: For the compound shown here, `Cc1cc(S(=O)(=O)Nc2nnc3c(Cl)cc(C(F)(F)F)cn23)c(S)cc1Cl` , give the reported growth inhibition.
output: -33.4

input: For the compound shown here, `Cc1cc(O)cc2oc(=O)ccc12` , give the reported growth inhibition.
output: -9.9

input: For the compound shown here, OCC(O)CS (stereo unspecified) , give the reported growth inhibition.
output: -4.8

input: For the compound shown here, `Cn1c([N+](=O)[O-])cnc1COc1ccc(OCc2ncc([N+](=O)[O-])n2C)cc1` , give the reported growth inhibition.
output: -0.55

input: For the compound shown here, `O=C(NNC(=O)c1ccc2ccccc2c1)c1ccc(Cl)c(Cl)c1` , give the reported growth inhibition.
output: -2.65

input: For the compound shown here, `O=c1nnc(O)c2n(O)cccc1-2` , give the reported growth inhibition.
output: 6.55

input: For the compound shown here, CC(NC(=O)NCCCl)c1cccc2ccccc12 (stereo unspecified) , give the reported growth inhibition.
output: -2.4

input: For the compound shown here, `OC(c1nc2ccccc2s1)(C(F)(F)F)C(F)(F)F` , give the reported growth inhibition.
output: -9.5

input: For the compound shown here, `O=[N+]([O-])c1ccc(N=Nc2ccc(O)c3c(O)cc(S(=O)(=O)O)cc23)cc1S(=O)(=O)O` , give the reported growth inhibition.
output: 6.85

input: For the compound shown here, `COC(=O)C(C#N)(CCc1ccc([N+](=O)[O-])cc1)CCc1ccc([N+](=O)[O-])cc1` , give the reported growth inhibition.
output: 3

input: For the compound shown here, `O=C(O)c1ccc2c([N+](=O)[O-])cccc2n1` , give the reported growth inhibition.
output: 14.3

====

growth inhibition overview
Assay Info: NCI Yeast Anticancer Drug Screen. Data for the cln2 rad14 strain (AID 165);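 further: 0% = growth equal to vehicle treated cultures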
Recorded Conditions: S. cerevisiae cln2 rad14 strain, at 50.0 µM, hits give high values
About 79,000 compounds went through this panel and 15% of them were active in at least one assay; those are over-represented in the sample as a whole.
The response must be a number in % with no trailing unit.

CCC(=O)Oc1ccccc1OC(=O)CC = 11.6
NNC(=S)N/N=C(\CCCC(=O)NCCc1ccccc1)CC(=O)c1ccccc1 = 18.1
CCC/C=C(/C=N/Nc1ccc([N+](=O)[O-])cc1[N+](=O)[O-])CC = 32.6
CCOC(=O)C(C(=O)OCC)=C(N)C(Cl)(Cl)Cl = 14.8
O=C(C[n+]1cccc(Cl)c1)c1ccccc1 = -9.7

input: For the molecule shown here, `CCC/C=N/Nc1ccc([N+](=O)[O-])cc1[N+](=O)[O-]` , give the reported growth inhibition.
output: -12.5

input: For the molecule shown here, CN(C)c1ccc(/C=C\C(O)c2ccccc2)cc1 (stereo not drawn) , give the reported growth inhibition.
output: 7.6

input: For the molecule shown here, `COc1cccc(NC(=S)/C(=C(/[O-])c2ccc([N+](=O)[O-])cc2)[n+]2cccc3ccccc32)c1` , give the reported growth inhibition.
output: 33.2

input: For the molecule shown here, `CCOC(=O)c1ccc(NC(=O)Nc2ccc(OC)c([N+](=O)[O-])c2)cc1` , give the reported growth inhibition.
output: -15.7

input: For the molecule shown here, `COc1ccc(CCn2nnc3ccccc3c2=O)cc1OC` , give the reported growth inhibition.
output: 16.6

input: For the molecule shown here, `CCCCCCCCCC(C)=O` , give the reported growth inhibition.
output: -17.9

input: For the molecule shown here, `CCCCCOc1ccc(/C=C\C(=O)O)cc1` , give the reported growth inhibition.
output: -6.75

input: For the molecule shown here, `O=C(OCc1ccccc1)C1(O)CCCCC1` , give the reported growth inhibition.
output: -2.7

input: For the molecule shown here, `COc1ccc(/C=C2/N=C(c3ccccc3)OC2=O)cc1` , give the reported growth inhibition.
output: -28.9

input: For the molecule shown here, CC(Oc1ccccc1)C(=O)NNC(=O)OC(C)(C)C (stereo not drawn) , give the reported growth inhibition.
output: -0.75

input: For the molecule shown here, `COc1cc(CNCCO)cc(OC)c1` , give the reported growth inhibition.
output: -15.1

input: For the molecule shown here, `N#CC1=CCc2ccccc2N1C(=O)Oc1ccccc1` , give the reported growth inhibition.
output: 19.4

input: For the molecule shown here, `O=[N+]([O-])c1ccc(-c2ccc(-c3ccccc3)cc2)cc1` , give the reported growth inhibition.
output: -15.4

input: For the molecule shown here, `O=C(O)C1=C(c2ccccc2)C=C(c2ccccc2)C1` , give the reported growth inhibition.
output: -33
